The measured values listed here are drawn from paper PMC9861390.

tested on: human breast cancer (MCF-7) cell line; assay: MTT cytotoxicity assay on MCF-7; type: cell-based; details: MCF7, 24 h incubation, mean and standard error of three tests
Listed here: items and their measured IC50.
metricName: IC50 (µM)

CC(=NNc1nc(C)c(N=Nc2ccc(Cl)cc2)s1)c1cc2cc(N=Nc3ccccc3)ccc2oc1=O
10.5
CC(=NNC1=NC(=O)C(=NNc2ccc(C)cc2)S1)c1cc2cc(N=Nc3ccccc3)ccc2oc1=O [Compound 10a]
28.6
CC(=NNc1nc(C)c(N=Nc2ccc(C)cc2)s1)c1cc2cc(N=Nc3ccccc3)ccc2oc1=O
11.2
CNC(=O)c1cc(Oc2ccc(NC(=O)Nc3ccc(Cl)c(C(F)(F)F)c3)cc2)ccn1 [Sorafenib, reference compound]
5.1
CC(=NNC1=NC(=O)C(=NNc2ccc([N+](=O)[O-])cc2)S1)c1cc2cc(N=Nc3ccccc3)ccc2oc1=O [Compound 10c]
15.7
COc1ccc(/N=N/c2sc(N/N=C(\C)c3cc4cc(/N=N/c5ccccc5)ccc4oc3=O)nc2C)cc1
14.1

---

Listed here: items and their measured melting point.
metricName: melting point

CC(=NNC1=NC(=O)C(=NNc2ccc(Cl)cc2)S1)c1cc2cc(N=Nc3ccccc3)ccc2oc1=O [Compound 10b]
190 to 192 °C
CC(=NNc1nc(C)c(N=Nc2ccc(Cl)cc2Cl)s1)c1cc2cc(N=Nc3ccccc3)ccc2oc1=O [Compound 6e]
216 to 218 °C
C/C(=N\Nc1nc(-c2ccc([N+](=O)[O-])cc2)cs1)c1cc2cc(/N=N/c3ccccc3)ccc2oc1=O [Compound 12c]
231 to 233 °C
COc1ccc(/N=N/c2sc(N/N=C(\C)c3cc4cc(/N=N/c5ccccc5)ccc4oc3=O)nc2C)cc1 [Compound 6c]
179 to 181 °C
C/C(=N\Nc1nc(C)c(/N=N/c2ccccc2)s1)c1cc2cc(/N=N/c3ccccc3)ccc2oc1=O [Compound 6a]
201 to 203 °C
CC(=NNc1nc(-c2ccccc2)cs1)c1cc2cc(N=Nc3ccccc3)ccc2oc1=O [Compound 12a]
217 to 219 °C
COc1ccc(-c2csc(NN=C(C)c3cc4cc(N=Nc5ccccc5)ccc4oc3=O)n2)cc1 [Compound 12b]
205 to 207 °C
CC(=NNC(N)=S)c1cc2cc(N=Nc3ccccc3)ccc2oc1=O [Compound 3]
177 to 179 °C

---

Listed here: items and their measured CC50 at 24 h.
experiment: MTT cytotoxicity assay on normal cell line LLC-Mk2; assay type: cell-based; settings: rhesus monkey, LLC-Mk2 kidney epithelial normal cells, mean and standard error
metricName: CC50 at 24 h

CC(=NNC1=NC(=O)C(=NNc2ccc(C)cc2)S1)c1cc2cc(N=Nc3ccccc3)ccc2oc1=O [Compound 10a]
140 µM
COc1ccc(/N=N/c2sc(N/N=C(\C)c3cc4cc(/N=N/c5ccccc5)ccc4oc3=O)nc2C)cc1 [Compound 6c]
141 µM
CC(=NNc1nc(C)c(N=Nc2ccc(Cl)cc2)s1)c1cc2cc(N=Nc3ccccc3)ccc2oc1=O [Compound 6d]
132 µM
CNC(=O)c1cc(Oc2ccc(NC(=O)Nc3ccc(Cl)c(C(F)(F)F)c3)cc2)ccn1 [Sorafenib, reference compound]
135 µM
CC(=NNC1=NC(=O)C(=NNc2ccc([N+](=O)[O-])cc2)S1)c1cc2cc(N=Nc3ccccc3)ccc2oc1=O [Compound 10c]
163 µM
CC(=NNc1nc(C)c(N=Nc2ccc(C)cc2)s1)c1cc2cc(N=Nc3ccccc3)ccc2oc1=O [Compound 6b]
152 µM
